# System: LOX IMVI melanoma
# method-summary: NCI tumour cell line growth inhibition, 48 h
Give TGI for every item shown.

Data request: Look up TGI of C=C1[C@@H]2CCC(C)(C)[C@H]1CCC(=O)[C@@H]2C(=O)OC and report it.
Data returned: > 100 µM

Data request: Look up TGI of Clc1ccc2c(NCCCNCc3ccc4c(c3)OCO4)ccnc2c1 and report it.
Data returned: 4.41 µM

Data request: Look up TGI of COC(=O)CC(c1ccccc1)C(C#N)(OP1(=O)OC(c2ccccc2)C(C)N1C)c1ccccc1 (centres undefined) and report it.
Data returned: > 100 µM

Data request: Look up TGI of O=C1C2Cc3ccccc3CN2C(=O)N1CCN1CCOCC1 (centres undefined) and report it.
Data returned: > 100 µM

Data request: Look up TGI of COc1ccc(-c2cc(-c3ccncc3)nc(N)c2-c2ccc(F)cc2)cc1 and report it.
Data returned: > 100 µM

Data request: Look up TGI of COc1cc2c(cc1OC)-c1c(c3ccc([N+](=O)[O-])cc3c(=O)n1CCCBr)C2=O and report it.
Data returned: 42.4 µM

Data request: Look up TGI of O=c1cc(/C=C/c2ccccc2)c2ccc(O/C(=C\c3ccccc3)c3nc4ccccc4c(=O)o3)cc2o1 and report it.
Data returned: > 100 µM

Data request: Look up TGI of O=C1CN2CCN(CC2)CC(=O)Nc2ccc(cc2)S(=O)(=O)c2ccc(cc2)NC(=O)CN2CCN(CC2)CC(=O)Nc2ccc(cc2)S(=O)(=O)c2ccc(cc2)N1 and report it.
Data returned: > 100 µM

Data request: Look up TGI of C=CCOC1=C(OC(C)=O)C(C2COC(C)(C)O2)OC1=O (centres undefined) and report it.
Data returned: 24 µM

Data request: Look up TGI of Nc1c(S(=O)(=O)O)cc2c(c1Cl)C(=O)c1ccccc1C2=O and report it.
Data returned: > 100 µM

Data request: Look up TGI of Nc1nc(=O)n(C2CC(O)C(CO)O2)c2nc(-c3ccc(-c4ccccc4)cc3)cnc12 (centres undefined) and report it.
Data returned: > 100 µM

Data request: Look up TGI of CCCCCCCCCCCCCCCc1nc(SCC(=O)O)n[nH]1 and report it.
Data returned: > 100 µM

Data request: Look up TGI of CC1(C)C(=O)C2(N)CCC1C2 (centres undefined) and report it.
Data returned: > 100 µM

Data request: Look up TGI of CC/C(=C(/c1ccc(Cl)cc1)c1ccc(OCCCN(C)C)cc1)c1ccc(OC)cc1 and report it.
Data returned: 1.64 µM

Data request: Look up TGI of N=C(N)c1ccc(-c2ccc(-c3ccccc3)o2)o1 and report it.
Data returned: 3.34 µM

Data request: Look up TGI of O=C(O)Cc1ccc(-n2nnc3c(=O)[nH][nH]c(=O)c32)cc1 and report it.
Data returned: > 100 µM

Data request: Look up TGI of Cc1nc2ccccc2n1Cc1ccc(NC(=S)NC2CCCCC2)cc1 and report it.
Data returned: > 100 µM

Data request: Look up TGI of CC1(C)CC(=O)C(/C=N/c2nc(-c3cccc([N+](=O)[O-])c3)cs2)=C(O)C1 and report it.
Data returned: 27.2 µM

Data request: Look up TGI of COC(=O)Cc1c(-c2c(CC(=O)OC)c3ccccc3n2C2OC(COC3OC(COC(C)=O)C(OC(C)=O)C(OC(C)=O)C3OC(C)=O)C(O)C(O)C2O)[nH]c2ccccc12 (centres undefined) and report it.
Data returned: > 100 µM

Data request: Look up TGI of NC1=C(O)/C(=N/NS(=O)(=O)c2ccccc2)C(c2cccc(Cl)c2)O1 (centres undefined) and report it.
Data returned: 49.2 µM

Data request: Look up TGI of COc1cc(Cl)c(C)cc1NC(=O)c1cc2ccccc2cc1O and report it.
Data returned: 10.8 µM

Data request: Look up TGI of CN(C)C=Nc1cccc2c1NSN2 and report it.
Data returned: > 100 µM

Data request: Look up TGI of COc1cc(-c2nc3cc(Cl)c(Cl)cc3[nH]2)ccc1OCC(=O)N=Nc1c(O)[nH]c2ccccc12 and report it.
Data returned: 0.368 µM

Data request: Look up TGI of COc1ccc(C(CC(=O)c2ccc(O)cc2)C(C(=O)c2ccc(O)cc2)C(c2ccc(OC)cc2)C2C(=O)NC(=S)NC2=O)cc1 (centres undefined) and report it.
Data returned: 38 µM

Data request: Look up TGI of OC1OC2COC(c3ccccc3)OC2C(O)C1O (centres undefined) and report it.
Data returned: > 100 µM

Data request: Look up TGI of CCN(CC)[C@@H]1c2cc3c(cc2C(c2cc(OC)c(O)c(OC)c2)C2C(=O)CO[C@@H]21)OCO3 (some centres undefined) and report it.
Data returned: > 100 µM

Data request: Look up TGI of COc1ccc2nc3c(cc2c1)C(=O)CC(C(F)(F)F)C3 (centres undefined) and report it.
Data returned: > 100 µM

Data request: Look up TGI of Cn1c(=O)c2nc3sc4ccccc4c(=N)n3c2n(C)c1=O and report it.
Data returned: > 100 µM

Data request: Look up TGI of CCOC(=O)/C(C#N)=C/c1[nH]c(C)c(C)c1C and report it.
Data returned: > 100 µM

Data request: Look up TGI of Nc1c(-c2ccc(-c3c(N)[n+]([O-])c4ccccc4[n+]3[O-])cc2)[n+]([O-])c2ccccc2[n+]1[O-] and report it.
Data returned: 25.6 µM

Data request: Look up TGI of COc1ccc(/C=C2/C(=O)C(c3ccccc3)N(c3ccccc3)C2=O)cc1OC (centres undefined) and report it.
Data returned: > 10 µM

Data request: Look up TGI of CC(C)(C)OC(=O)/C=C/[C@@H](CCC(=O)/C=C/[C@H](/C=C\CCCC(=O)O)NC1(c2ccccc2)c2ccccc2-c2ccccc21)O[Si](C)(C)C(C)(C)C and report it.
Data returned: 27.6 µM

Data request: Look up TGI of CSc1nc(NC2OC(CO)C(O)C(O)C2O)c(N)c(=O)[nH]1 (centres undefined) and report it.
Data returned: > 100 µM

Data request: Look up TGI of O=C(O)COc1cccc2ccccc(=O)c12 and report it.
Data returned: > 100 µM

Data request: Look up TGI of Cc1c(OCc2cccc3ccccc23)ccc2c(=O)cc(S)oc12 and report it.
Data returned: 47.5 µM

Data request: Look up TGI of CN1CCN(C(=S)N(C(=O)c2ccc(Cl)cc2)C2CCCCC2)CC1 and report it.
Data returned: > 100 µM

Data request: Look up TGI of O=C1OC(=O)C2C1C1(c3ccccc3)OC2(c2ccccc2)c2c(Br)c(Br)c(Br)c(Br)c21 (centres undefined) and report it.
Data returned: > 100 µM

Data request: Look up TGI of Cn1cc(C2=C(c3cn(CCCN/C(N)=N\[N+](=O)[O-])c4ccccc34)C(=O)NC2=O)c2ccccc21 and report it.
Data returned: 21.6 µM

Data request: Look up TGI of COc1ccc(-n2cc(-c3ccc(F)cc3)[nH]c2=O)cc1OC and report it.
Data returned: > 100 µM
